Source of measurements: patent US9156872B2

Test system: HCV replicon cells
protocol_description: Cell-based HCV replicon assay (replicon RNA by Taqman real time PCR)
condition_description: read-out: 1b EC50
result_type: EC50 (µM)
The response must be a number in µM with no trailing unit.

The reported value for CCOC(=O)[C@H](C)NP(=O)(OC[C@H]1O[C@@H](n2cnc3c(OCC)nc(N)nc32)[C@](C)(N=[N+]=[N-])[C@@H]1O)Oc1ccccc1Cl (single isomer, unassigned) [Compound 359] in terms of EC50 is 3.3

Measured EC50 of C[C@H](NP(=O)(OC[C@H]1O[C@@H](n2ccc(=O)[nH]c2=O)[C@](C)(N=[N+]=[N-])[C@@H]1O)Oc1ccc(F)cc1)C(=O)OC1CCCCC1 (stereo partly shown) [Compound 90] : 2.1

The compound listed as CCOC(=O)[C@H](C)NP(=O)(OC[C@H]1O[C@@H](n2cnc3c(OC)nc(N)nc32)[C@](C)(N=[N+]=[N-])[C@@H]1O)Oc1ccc(Cl)cc1 (single isomer, unassigned) [Compound 290] shows EC50 equal to 0.8

New cases:
# EC50 (compound: C[C@H](NP(=O)(OC[C@H]1O[C@@H](n2ccc(N)nc2=O)[C@](C)(N=[N+]=[N-])[C@@H]1O)Oc1ccc(Cl)cc1)C(=O)OC1CCCCC1 (single isomer, unassigned) [Compound 340] ) is 20

The reported value for CCOc1nc(N)nc2c1ncn2[C@@H]1O[C@H](COP(=O)(N[C@@H](C)C(=O)OC(C)C)Oc2ccc(Cl)c(Cl)c2)[C@@H](O)[C@@]1(C)N=[N+]=[N-] (single isomer, unassigned) [Compound 360] in terms of EC50 is 4.8

Record COC(=O)[C@H](C)NP(=O)(OC[C@H]1O[C@@H](n2ccc(N)nc2=O)[C@](C)(N=[N+]=[N-])[C@@H]1O)Oc1ccccc1Cl (single isomer, unassigned) [Compound 201] , field EC50: 12

Looking up COC(=O)[C@H](C)NP(=O)(OC[C@H]1O[C@@H](n2cnc3c(OC)nc(N)nc32)[C@](C)(N=[N+]=[N-])[C@@H]1O)Oc1ccccc1Cl (single isomer, unassigned) [Compound 257] , I see its EC50 listed as 0.7

compound CCOC(=O)[C@H](C)NP(=O)(OC[C@H]1O[C@@H](n2ccc(=O)[nH]c2=O)[C@](C)(N=[N+]=[N-])[C@@H]1O)Oc1ccc(Cl)cc1 (stereo partly shown) [Compound 323] , EC50 observed: 5.3

Measured EC50, COC(=O)[C@H](C)NP(=O)(OC[C@H]1O[C@@H](n2ccc(N)nc2=O)[C@](C)(N=[N+]=[N-])[C@@H]1O)Oc1ccc(Cl)c(Cl)c1 (single isomer, unassigned) [Compound 193] : 61
